# reportedConditions: in methyl acetate, 283.15 K
readout: solubility (mole fraction)

Ask: Would you mind telling me what solubility (mole fraction) value was observed for CC(C)Oc1ccc2c(=O)c(-c3ccccc3)coc2c1 ?
Reply: 0.0116

----------
# reportedConditions: in methanol, 323.15 K
readout: solubility (mole fraction)
// no unit string in output, number only

Ask: Would you mind telling me what solubility (mole fraction) value was observed for CC(C)Oc1ccc2c(=O)c(-c3ccccc3)coc2c1 ?
Reply: 0.00823

----------
# reportedConditions: in n-propanol, 298.15 K
readout: solubility (mole fraction)
// no unit string in output, number only

Ask: Would you mind telling me what solubility (mole fraction) value was observed for CC(C)Oc1ccc2c(=O)c(-c3ccccc3)coc2c1 ?
Reply: 0.00399
